// reported percentage of EdU-negative per item
- Tested on: MCF7
- ASSAY: percentage of EdU-negative (G0-arrested) nuclei per well, 72 h; higher = more G0 arrest;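 further: secreted proteins added to cultured cells, EdU pulse at the end, nuclei found by Hoechst imaging, EdU status from nuclear versus surrounding ring intensity ratio, PBS as neutral control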
- CONDITION SUMMARY: protein concentration 0.0225 µM; reference: sequence is the full UniProt precursor, the tested protein was the secreted form or ectodomain
The response must be a number in % with no trailing unit.

Examples with answers:
- SEQ STRING: "MLPPMALPSVSWMLLSCLILLCQVQGEETQKELPSPRISCPKGSKAYGSPCYALFLSPKSWMDADLACQKRPSGKLVSVLSGAEGSFVSSLVRSISNSYSYIWIGLHDPTQGSEPDGDGWEWSSTDVMNYFAWEKNPSTILNPGHCGSLSRSTGFLKWKDYNCDAKLPYVCKFKD [Q6UW15]"
  percentage of EdU-negative [%]: 25.4
- SEQ STRING: "MARPLCTLLLLMATLAGALASSSKEENRIIPGGIYDADLNDEWVQRALHFAISEYNKATEDEYYRRPLQVLRAREQTFGGVNYFFDVEVGRTICTKSQPNLDTCAFHEQPELQKKQLCSFEIYEVPWEDRMSLVNSRCQEA"
  percentage of EdU-negative [%]: 25.1

Look up and state reported percentage of EdU-negative for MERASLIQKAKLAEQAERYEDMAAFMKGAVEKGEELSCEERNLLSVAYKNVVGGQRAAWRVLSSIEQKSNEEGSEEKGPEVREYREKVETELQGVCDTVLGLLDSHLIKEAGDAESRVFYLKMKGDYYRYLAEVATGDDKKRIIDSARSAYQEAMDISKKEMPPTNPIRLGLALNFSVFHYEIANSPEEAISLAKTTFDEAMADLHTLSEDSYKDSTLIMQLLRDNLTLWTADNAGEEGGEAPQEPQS
25.3

Look up and state reported percentage of EdU-negative for MKITGGLLLLCTVVYFCSSSEAASLSPKKVDCSIYKKYPVVAIPCPITYLPVCGSDYITYGNECHLCTESLKSNGRVQFLHDGSC
23.6

Look up and state reported percentage of EdU-negative for MTLFPVLLFLVAGLLPSFPANEDKDPAFTALLTTQTQVQREIVNKHNELRRAVSPPARNMLKMEWNKEAAANAQKWANQCNYRHSNPKDRMTSLKCGENLYMSSASSSWSQAIQSWFDEYNDFDFGVGPKTPNAVVGHYTQVVWYSSYLVGCGNAYCPNQKVLKYYYVCQYCPAGNWANRLYVPYEQGAPCASCPDNCDDGLCTNGCKYEDLYSNCKSLKLTLTCKHQLVRDSCKASCNCSNSIY
24.2

====

- Tested on: hTERT-HMEC
- ASSAY: percentage of EdU-negative (G0-arrested) nuclei per well, 72 h; higher = more G0 arrest
- CONDITION SUMMARY: protein concentration 0.0225 µM; reference: sequence is the full UniProt precursor, the tested protein was the secreted form or ectodomain
QUANTITY KIND: percentage of EdU-negative
Please report the result as a number followed by the unit.

- SEQ STRING: "MVLCFPLLLLLLVLWGPVCPLHAWPKRLTKAHWFEIQHIQPSPLQCNRAMSGINNYTQHCKHQNTFLHDSFQNVAAVCDLLSIVCKNRRHNCHQSSKPVNMTDCRLTSGKYPQCRYSAAAQYKFFIVACDPPQKSDPPYKLVPVHLDSIL"
  TARGET OR SYSTEM: "hTERT-HMEC"
  percentage of EdU-negative: "4.8%"

Look up and state reported percentage of EdU-negative for MSSFSTTTVSFLLLLAFQLLGQTRANPMYNAVSNADLMDFKNLLDHLEEKMPLEDEVVPPQVLSEPNEEAGAALSPLPEVPPWTGEVSPAQRDGGALGRGPWDSSDRSALLKSKLRALLTAPRSLRRSSCFGGRMDRIGAQSGLGCNSFRY
4.9%

====

- Test system: MCF7
- ASSAY: percentage of EdU-negative (G0-arrested) nuclei per well, 72 h; higher = more G0 arrest
- CONDITION SUMMARY: protein concentration 0.3125 µM; reference: sequence is the full UniProt precursor, the tested protein was the secreted form or ectodomain
QUANTITY KIND: percentage of EdU-negative
Please report the result as a number followed by the unit.

Look up and state reported percentage of EdU-negative for MGHPPLLPLLLLLHTCVPASWGLRCMQCKTNGDCRVEECALGQDLCRTTIVRLWEEGEELELVEKSCTHSEKTNRTLSYRTGLKITSLTEVVCGLDLCNQGNSGRAVTYSRSRYLECISCGSSDMSCERGRHQSLQCRSPEEQCLDVVTHWIQEGEEGRPKDDRHLRGCGYLPGCPGSNGFHNNDTFHFLKCCNTTKCNEGPILELENLPQNGRQCYSCKGNSTHGCSSEETFLIDCRGPMNQCLVATGTHEPKNQSYMVRGCATASMCQHAHLGDAFSMNHIDVSCCTKSGCNHPDLDVQYRSGAAPQPGPAHLSLTITLLMTARLWGGTLLWT
21%

====

// reported percentage of EdU-negative per item
- System: hTERT-HMEC
- ASSAY: percentage of EdU-negative (G0-arrested) nuclei per well, 72 h; higher = more G0 arrest
- CONDITION SUMMARY: protein concentration 0.0225 µM; reference: sequence is the full UniProt precursor, the tested protein was the secreted form or ectodomain
The response must be a number in % with no trailing unit.

Examples with answers:
- SEQ STRING: "MPRRSLHAAAVLLLVILKEQPSSPAPVNGSKWTYFGPDGENSWSKKYPSCGGLLQSPIDLHSDILQYDASLTPLEFQGYNLSANKQFLLTNNGHSVKLNLPSDMHIQGLQSRYSATQLHLHWGNPNDPHGSEHTVSGQHFAAELHIVHYNSDLYPDASTASNKSEGLAVLAVLIEMGSFNPSYDKIFSHLQHVKYKGQEAFVPGFNIEELLPERTAEYYRYRGSLTTPPCNPTVLWTVFRNPVQISQEQLLALETALYCTHMDDPSPREMINNFRQVQKFDERLVYTSFSQVQVCTAAGLSLGIILSLALAGILGICIVVVVSIWLFRRKSIKKGDNKGVIYKPATKMETEAHA"
  TARGET OR SYSTEM: "hTERT-HMEC"
  NUMERIC RESULT: 5.44
- SEQ STRING: "MRLSVRRVLLAAGCALVLVLAVQLGQQVLECRAVLAGLRSPRGAMRPEQEELVMVGTNHVEYRYGKAMPLIFVGGVPRSGTTLMRAMLDAHPEVRCGEETRIIPRVLAMRQAWSKSGREKLRLDEAGVTDEVLDAAMQAFILEVIAKHGEPARVLCNKDPFTLKSSVYLSRLFPNSKFLLMVRDGRASVHSMITRKVTIAGFDLSSYRDCLTKWNKAIEVMYAQCMEVGKEKCLPVYYEQLVLHPRRSLKLILDFLGIAWSDAVLHHEDLIGKPGGVSLSKIERSTDQVIKPVNLEALSKWTGHIPGDVVRDMAQIAPMLAQLGYDPYANPPNYGNPDPFVINNTQRVLKGDYKTPANLKGYFQVNQNSTSSHLGSS"
  TARGET OR SYSTEM: "hTERT-HMEC"
  NUMERIC RESULT: 5.18
- SEQ STRING: "MRLAGPLRIVVLVVSVGVTWIVVSILLGGPGSGFPRIQQLFTSPESSVTAAPRARKYKCGLPQPCPEEHLAFRVVSGAANVIGPKICLEDKMLMSSVKDNVGRGLNIALVNGVSGELIEARAFDMWAGDVNDLLKFIRPLHEGTLVFVASYDDPATKMNEETRKLFSELGSRNAKELAFRDSWVFVGAKGVQNKSPFEQHVKNSKHSNKYEGWPEALEMEGCIPRRSTAS"
  TARGET OR SYSTEM: "hTERT-HMEC"
  NUMERIC RESULT: 5.06
- SEQ STRING: "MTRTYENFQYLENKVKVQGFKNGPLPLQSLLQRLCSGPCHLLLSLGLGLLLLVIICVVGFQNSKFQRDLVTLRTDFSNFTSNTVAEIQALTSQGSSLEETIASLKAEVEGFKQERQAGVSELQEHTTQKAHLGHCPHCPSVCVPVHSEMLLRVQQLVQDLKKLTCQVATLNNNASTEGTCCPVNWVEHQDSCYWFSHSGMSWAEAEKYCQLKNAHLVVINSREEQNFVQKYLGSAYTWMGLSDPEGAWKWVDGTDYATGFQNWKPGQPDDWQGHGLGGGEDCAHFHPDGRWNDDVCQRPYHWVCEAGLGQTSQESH [Q8IUN9]"
  TARGET OR SYSTEM: "hTERT-HMEC"
  NUMERIC RESULT: 5.25
- SEQ STRING: "MLGQVVTLILLLLLKVYQGKGCQGSADHVVSISGVPLQLQPNSIQTKVDSIAWKKLLPSQNGFHHILKWENGSLPSNTSNDRFSFIVKNLSLLIKAAQQQDSGLYCLEVTSISGKVQTATFQVFVFESLLPDKVEKPRLQGQGKILDRGRCQVALSCLVSRDGNVSYAWYRGSKLIQTAGNLTYLDEEVDINGTHTYTCNVSNPVSWESHTLNLTQDCQNAHQEFRFWPFLVIIVILSALFLGTLACFCVWRRKRKEKQSETSPKEFLTIYEDVKDLKTRRNHEQEQTFPGGGSTIYSMIQSQSSAPTSQEPAYTLYSLIQPSRKSGSRKRNHSPSFNSTIYEVIGKSQPKAQNPARLSRKELENFDVYS [Q9BZW8]"
  TARGET OR SYSTEM: "hTERT-HMEC"
  NUMERIC RESULT: 5.21
- SEQ STRING: "MASRWAVQLLLVAAWSMGCGEALKCYTCKEPMTSASCRTITRCKPEDTACMTTLVTVEAEYPFNQSPVVTRSCSSSCVATDPDSIGAAHLIFCCFRDLCNSEL"
  TARGET OR SYSTEM: "hTERT-HMEC"
  NUMERIC RESULT: 5.43

Retrieve percentage of EdU-negative on hTERT-HMEC; query MTPSRLPWLLSWVSATAWRAARSPLLCHSLRKTSSSQGGKSELVKQSLKKPKLPEGRFDAPEDSHLEKEPLEKFPDDVNPVTKEKGGPRGPEPTRYGDWERKGRCIDF [Q5VUM1]
5.46

Retrieve percentage of EdU-negative on hTERT-HMEC; query MAPISLSWLLRLATFCHLTVLLAGQHHGVTKCNITCSKMTSKIPVALLIHYQQNQASCGKRAIILETRQHRLFCADPKEQWVKDAMQHLDRQAAALTRNGGTFEKQIGEVKPRTTPAAGGMDESVVLEPEATGESSSLEPTPSSQEAQRALGTSPELPTGVTGSSGTRLPPTPKAQDGGPVGTELFRVPPVSTAATWQSSAPHQPGPSLWAEAKTSEAPSTQDPSTQASTASSPAPEENAPSEGQRVWGQGQSPRPENSLEREEMGPVPAHTDAFQDWGPGSMAHVSVVPVSSEGTPSREPVASGSWTPKAEEPIHATMDPQRLGVLITPVPDAQAATRRQAVGLLAFLGLLFCLGVAMFTYQSLQGCPRKMAGEMAEGLRYIPRSCGSNSYVLVPV
4.91

Retrieve percentage of EdU-negative on hTERT-HMEC; query MDPGLQQALNGMAPPGDTAMHVPAGSVASHLGTTSRSYFYLTTATLALCLVFTVATIMVLVVQRTDSIPNSPDNVPLKGGNCSEDLLCILKRAPFKKSWAYLQVAKHLNKTKLSWNKDGILHGVRYQDGNLVIQFPGLYFIICQLQFLVQCPNNSVDLKLELLINKHIKKQALVTVCESGMQTKHVYQNLSQFLLDYLQVNTTISVNVDTFQYIDTSTFPLENVLSIFLYSNSD
4.46

Retrieve percentage of EdU-negative on hTERT-HMEC; query MVGKLKQNLLLACLVISSVTVFYLGQHAMECHHRIEERSQPVKLESTRTTVRTGLDLKANKTFAYHKDMPLIFIGGVPRSGTTLMRAMLDAHPDIRCGEETRVIPRILALKQMWSRSSKEKIRLDEAGVTDEVLDSAMQAFLLEIIVKHGEPAPYLCNKDPFALKSLTYLSRLFPNAKFLLMVRDGRASVHSMISRKVTIAGFDLNSYRDCLTKWNRAIETMYNQCMEVGYKKCMLVHYEQLVLHPERWMRTLLKFLQIPWNHSVLHHEEMIGKAGGVSLSKVERSTDQVIKPVNVGALSKWVGKIPPDVLQDMAVIAPMLAKLGYDPYANPPNYGKPDPKIIENTRRVYKGEFQLPDFLKEKPQTEQVE
4.95

Retrieve percentage of EdU-negative on hTERT-HMEC; query MKASSLAFSLLSAAFYLLWTPSTGLKTLNLGSCVIATNLQEIRNGFSEIRGSVQAKDGNIDIRILRRTESLQDTKPANRCCLLRHLLRLYLDRVFKNYQTPDHYTLRKISSLANSFLTIKKDLRLCHAHMTCHCGEEAMKKYSQILSHFEKLEPQAAVVKALGELDILLQWMEETE [Q9NYY1]
4.59
